Positions of bridges follow the written chain, without caps; N, C: chain ends. Residues, ends and D or L forms follow the SMILES beside them.
outcome measure: Ki
Hi, when you answer, please include the unit after the number. Thanks!

q: Fill in: Ki on Acetylcholine-binding protein (Lymnaea stagnalis, UniProt P58154), entry CC(C)C[C@@H]1NC(=O)[C@H](C)NC(=O)[C@@H]2CSSC[C@H](NC(=O)CN)C(=O)N[C@@H](CSSC[C@@H](C(=O)O)NC(=O)[C@@H]3CCCN3C(=O)[C@H](CC(N)=O)NC(=O)[C@H](CC(N)=O)NC1=O)C(=O)N[C@@H](CO)C(=O)N[C@@H](CC(C)C)C(=O)N1CCC[C@H]1C(=O)N1CCC[C@H]1C(=O)N2 (H-GCCSLPPCALNNPC-OH; disulfide 2-8, 3-14)
Sequence (P58154 whole entry): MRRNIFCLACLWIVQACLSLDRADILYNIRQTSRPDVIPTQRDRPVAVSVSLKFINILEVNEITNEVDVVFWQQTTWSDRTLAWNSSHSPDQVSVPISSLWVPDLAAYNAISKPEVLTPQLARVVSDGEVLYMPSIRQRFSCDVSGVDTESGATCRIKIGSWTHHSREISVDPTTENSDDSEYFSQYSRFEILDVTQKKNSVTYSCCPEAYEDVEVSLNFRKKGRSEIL
a: 4.6 µM
